Provenance of the data: patent US20240124417A1

Please go through the items and note down their IC50.
# system-tested: PD-1/PD-L1 (Homo sapiens)
# Construct: TVMV protease site linker (C)
# Sequence (Q9NZQ7 18-239): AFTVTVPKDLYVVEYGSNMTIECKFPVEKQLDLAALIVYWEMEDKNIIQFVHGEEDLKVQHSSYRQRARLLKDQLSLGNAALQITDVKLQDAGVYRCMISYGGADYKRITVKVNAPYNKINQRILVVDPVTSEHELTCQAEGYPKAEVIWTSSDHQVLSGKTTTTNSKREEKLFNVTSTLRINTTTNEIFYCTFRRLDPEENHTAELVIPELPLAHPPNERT
# procedure-summary: PD-1/PD-L1 Homogenous Time-Resolved Fluorescence (HTRF) binding assay
# assay-setup: PD-L1-His 10 nM, PD-1-Ig 20 nM
State just the number; it will be interpreted in nM.

-- ask # query: IC50 of entry Cc1c(COc2cc(OCc3cncc(C#N)c3)c(CNCc3cncnc3)cc2Cl)cccc1-c1cccc(OCCCN2CC[C@@H](O)C2)c1C
-- reply 0.8

-- ask Report IC50 for Cc1c(COc2cc(OCc3cncc(C#N)c3)c(CN(C)CCc3cc[nH]n3)cc2Cl)cccc1-c1cccc(OCCCN2CC[C@@H](O)C2)c1C please.
-- reply 4.4

-- ask Given the compound Cc1c(COc2cc(OCc3cncc(C#N)c3)c(CNC3(c4ncon4)CC(OCc4ccccc4)C3)cc2Cl)cccc1-c1cccc(OCC2CCCN(C)C2)c1Cl (stereo not drawn) , what is its reported IC50?
-- reply 35.3

-- ask // IC50 lookup, key: Cc1c(COc2cc(OCc3cncc(C#N)c3)c(CN(C)Cc3cn[nH]c3)cc2Cl)cccc1-c1cccc(OCCCN2CC[C@@H](O)C2)c1C
-- reply 2.2

-- ask Returns the measured IC50 for the input compound. Input: Cc1c(COc2cc(OCc3cncc(C#N)c3)c(CN(C)Cc3cocn3)cc2Cl)cccc1-c1cccc(OCCCN2CC[C@@H](O)C2)c1C
-- reply 1.6

-- ask Which IC50 reading was recorded for the compound Cc1c(COc2cc(OCc3cncc(C#N)c3)c(CNCCc3cc[nH]n3)cc2Cl)cccc1-c1cccc(OCC2CCCN(C)C2)c1Cl (stereo not drawn) ?
-- reply 3.7
